- assay name: small molecules captured by biotinylated probe aFGF10 – biochemical, small-molecule microarray, fluorescence 635/667, stem cell growth factor project, primary screen (AID 1071);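 note: score merges 667 nm spot intensity and signal to noise from triplicate slides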
- measurement conditions: higher = more signal
Catalogue of composite z-score readings, one per entry.

compound: [N-]=[N+]=Nc1ccccc1C[C@@]1(C(=O)NCc2ccccc2)N=C(c2ccc(OCCCO)cc2)O[C@@H]1c1ccccc1N=[N+]=[N-]
composite z-score: 1.04
--
compound: C=C(COC)C(=O)CC[C@H](OC(=O)c1cccnc1)c1ccc(OCCO)cc1
composite z-score: 1.2
--
compound: CCOC(=O)C[C@H]1[C@H](OC(=O)Cc2ccc3c(c2)OCO3)[C@@H](NC(=O)Cc2ccc(OC)cc2)c2cc(OCCCO)ccc2N1C(=O)Cc1ccc(OC)cc1
composite z-score: 0.209
--
compound: O=C1O[C@@H](c2ccccc2)[C@@H](c2ccccc2)N2[C@@H](c3ccc(OCCO)cc3)[C@]3(C(=O)Nc4ccc(C#CC5(O)CCCCCC5)cc43)[C@@H](C(=O)O)[C@H]12
composite z-score: 0.635
--
compound: O=C(NCc1ccc(F)cc1)[C@H]1C[C@H]2C(=O)N3CCC[C@H]3C(=O)N2[C@H]1c1ccc(O)cc1
composite z-score: -0.216
--
compound: CC1CC/C=C\[C@H]2OC34C=CCN(c5ccc(Cl)cc5)C(=O)[C@H]3N(CCCCCCO)C(=O)[C@]4(C)C2C(=O)O1 (some centres not stated)
composite z-score: -0.219
--
compound: CC(=O)NCCCC[C@@H]1NC(=O)[C@H]2C[C@@H](C(=O)NCCCCCCNC(=O)CS)[C@@H](c3cccc(OCCO)c3)N2C1=O
composite z-score: 0.492
